In this section, each of the molecules is paired with its reported IC50.
assay: Antioxidant activity assessed as ABTS radical scavenging activity after 20 mins; type: functional
Just the number plus its unit, please.

// worked examples, IC50 included
molecule | IC50
O=C(N/N=C\c1c(O)cc(O)cc1/C=C/c1ccc(O)cc1)c1ccccc1F | 17.3 µM
Oc1ccc(/C=C/c2cc(O)cc(O)c2)cc1 [RESVERATROL] | 18.4 µM

Consider now this further molecule.
IC50 reading for `O=C(N/N=C\c1c(O)cc(O)cc1/C=C/c1ccc(O)cc1)c1cccnc1` : 12.7 µM
